Values from patent EP0908457B1

Test system: Cyperus iria
assay info: Preemergence weed control under flooded paddy conditions, CYPIR (Rice Flatsedge); also: meaning of each grade not given here
Type: in vivo
condition description: Rate 0.1250 kg/ha; preemergence, flooded paddy; rated 3-4 weeks after treatment

>  <compound>
Cc1ccc(OCC(=O)OCC2(c3ccccc3)CC2)c(-c2nsc3ccc(-n4c(=O)cc(C(F)(F)F)n(C)c4=O)cc23)c1

>  <herbicidal effect rating, CYPIR>
5.5

$$$$
>  <compound>
COCCOC(=O)C(C)(C)Oc1ccc(C)cc1-c1nsc2ccc(-n3c(=O)cc(C(F)(F)F)n(C)c3=O)cc12

>  <herbicidal effect rating, CYPIR>
6.0

$$$$
>  <compound>
Cc1ccc(OC(C)(C)C(=O)OCCCl)c(-c2nsc3ccc(-n4c(=O)cc(C(F)(F)F)n(C)c4=O)cc23)c1

>  <herbicidal effect rating, CYPIR>
9.0

$$$$
>  <compound>
CCCS(=O)(=O)NC(=O)COc1ccccc1-c1nsc2ccc(-n3c(=O)cc(C(F)(F)F)n(C)c3=O)cc12

>  <herbicidal effect rating, CYPIR>
7.0

$$$$
>  <compound>
C#CCOC(=O)C(C)(C)Oc1ccc(C)cc1-c1nsc2ccc(-n3c(=O)cc(C(F)(F)F)n(C)c3=O)cc12

>  <herbicidal effect rating, CYPIR>
5.0

$$$$
>  <compound>
Cc1nsc2ccc(-n3c(=O)cc(C(F)(F)F)n(CCF)c3=O)cc12

>  <herbicidal effect rating, CYPIR>
0.0

$$$$
>  <compound>
CC(Oc1ccccc1-c1nsc2ccc(-n3c(=O)cc(C(F)(F)F)n(C)c3=O)cc12)C(=O)N(C)C (stereo not shown)

>  <herbicidal effect rating, CYPIR>
0.0

$$$$

----------
System: Monochoria vaginalis, Presl.
assay info: Preemergence weed control under flooded paddy conditions, MOOVA (Monochoria)
Format: in vivo
condition description: 0.0320 kg/ha; preemergence weeds, flooded paddy; herbicidal effect rating 0-9, three to four weeks after treatment
// MOOVA lookup, one value per entry

>  <compound>
COC(=O)CN(C(=O)c1nsc2ccc(-n3c(=O)cc(C(F)(F)F)n(C)c3=O)cc12)S(=O)(=O)Cc1ccccc1 [Example 441]

>  <target desc>
Monochoria vaginalis, Presl.

>  <MOOVA>
9.0

$$$$
>  <compound>
CN(/N=C/c1nsc2ccc(-n3c(=O)cc(C(F)(F)F)n(C)c3=O)cc12)c1ccccc1 [Example 412]

>  <target desc>
Monochoria vaginalis, Presl.

>  <MOOVA>
7.0

$$$$
>  <compound>
COc1ccc(C)cc1-c1nsc2cc(Cl)c(-n3c(=O)cc(C(F)(F)F)n(C)c3=O)cc12 [Example 442]

>  <target desc>
Monochoria vaginalis, Presl.

>  <MOOVA>
6.0

$$$$
>  <compound>
CC(OS(=O)(=O)C(C)C)c1nsc2ccc(-n3c(=O)cc(C(F)(F)F)n(C)c3=O)cc12 (stereo not shown) [Example 413]

>  <target desc>
Monochoria vaginalis, Presl.

>  <MOOVA>
7.0

$$$$

----------
System: Echinochloa oryzoides (Ard.) Fritsch.
assay info: Preemergence weed control under flooded paddy conditions, ECHORC (Watergrass (Calif.)); also: meaning of each grade not given here
Assay type: in vivo
condition description: Rate 0.0320 kg/ha; preemergence, flooded paddy; rated three to four weeks after treatment
herbicidal effect rating, ECHORC strictly under 2 means yes; at 2 or over means no.

>  <molecule>
CC(=O)NCCOC(=O)c1nsc2ccc(-n3c(=O)cc(C(F)(F)F)n(C)c3=O)cc12

>  <assigned class>
yes

$$$$
>  <molecule>
Cn1c(C(F)(F)F)cc(=O)n(-c2ccc3snc(C(C#N)=Cc4ccncc4)c3c2)c1=O

>  <assigned class>
yes

$$$$
>  <molecule>
CN(C(=O)c1nsc2ccc(-n3c(=O)cc(C(F)(F)F)n(C)c3=O)cc12)c1ccc(Cl)cc1

>  <assigned class>
no

$$$$
>  <molecule>
C=CCC(C#N)(CC=C)c1nsc2ccc(-n3c(=O)cc(C(F)(F)F)n(C)c3=O)cc12

>  <assigned class>
no

$$$$
>  <molecule>
Cn1c(C(F)(F)F)cc(=O)n(-c2ccc3snc(COC(=O)c4ccccc4)c3c2)c1=O

>  <assigned class>
no

$$$$
>  <molecule>
Cn1c(C(F)(F)F)cc(=O)n(-c2ccc3snc(COCc4ccc(Cl)cc4Cl)c3c2)c1=O

>  <assigned class>
no

$$$$
>  <molecule>
Cn1c(C(F)(F)F)cc(=O)n(-c2ccc3snc(C(C#N)=Cc4cc5ccccc5[nH]4)c3c2)c1=O

>  <assigned class>
yes

$$$$
>  <molecule>
Cn1c(C(F)(F)F)cc(=O)n(-c2ccc3snc(COS(C)(=O)=O)c3c2)c1=O

>  <assigned class>
no

$$$$
>  <molecule>
CC(C#N)c1nsc2ccc(-n3c(=O)cc(C(F)(F)F)n(C)c3=O)cc12 (centres unmarked)

>  <assigned class>
no

$$$$
>  <molecule>
Cn1c(C(F)(F)F)cc(=O)n(-c2ccc3snc(C(C#N)=Cc4ccoc4)c3c2)c1=O

>  <assigned class>
yes

$$$$
>  <molecule>
COc1cc2c(cc1-c1nsc3ccc(-n4c(=O)cc(C(F)(F)F)n(C)c4=O)cc13)CCC2

>  <assigned class>
no

$$$$
>  <molecule>
COc1ccc(O)c(-c2nsc3ccc(-n4c(=O)cc(C(F)(F)F)n(C)c4=O)cc23)c1

>  <assigned class>
yes

$$$$
>  <molecule>
CCC(C)S(=O)(=O)NC(=O)c1nsc2ccc(-n3c(=O)cc(C(F)(F)F)n(C)c3=O)cc12 (centres unmarked)

>  <assigned class>
yes

$$$$
>  <molecule>
C=CCC(c1nsc2ccc(-n3c(=O)cc(C(F)(F)F)n(C)c3=O)cc12)S(C)(=O)=O (centres unmarked)

>  <assigned class>
yes

$$$$
>  <molecule>
CCCCS(=O)(=O)OCc1nsc2ccc(-n3c(=O)cc(C(F)(F)F)n(C)c3=O)cc12

>  <assigned class>
yes

$$$$
>  <molecule>
Cn1c(C(F)(F)F)cc(=O)n(-c2ccc3snc(COC(=O)NCc4ccccc4)c3c2)c1=O

>  <assigned class>
no

$$$$
>  <molecule>
CC(C)S(=O)(=O)OCc1nsc2ccc(-n3c(=O)cc(C(F)(F)F)n(C)c3=O)cc12

>  <assigned class>
no

$$$$
>  <molecule>
Cn1c(C(F)(F)F)cc(=O)n(-c2ccc3snc(C(=O)NS(=O)(=O)c4ccc5ccccc5c4)c3c2)c1=O

>  <assigned class>
no

$$$$
>  <molecule>
C#CCOC(=O)COc1ccc(OC)cc1-c1nsc2ccc(-n3c(=O)cc(C(F)(F)F)n(C)c3=O)cc12

>  <assigned class>
no

$$$$
>  <molecule>
CCS(=O)(=O)NC(=O)c1nsc2ccc(-n3c(=O)cc(C(F)(F)F)n(C)c3=O)cc12

>  <assigned class>
no

$$$$
>  <molecule>
Cn1c(C(F)(F)F)cc(=O)n(-c2ccc3snc(C[S+]([O-])c4ccccc4)c3c2)c1=O (centres unmarked)

>  <assigned class>
yes

$$$$
>  <molecule>
Cn1c(C(F)(F)F)cc(=O)n(-c2ccc3snc(C(C#N)=Cc4ccc[nH]4)c3c2)c1=O

>  <assigned class>
yes

$$$$
>  <molecule>
CC(=O)OCCOC(=O)COc1ccc(C)cc1-c1nsc2ccc(-n3c(=O)cc(C(F)(F)F)n(C)c3=O)cc12

>  <assigned class>
no

$$$$
>  <molecule>
Cn1c(C(F)(F)F)cc(=O)n(-c2ccc3snc(C(C#N)=Cc4ccccc4C#N)c3c2)c1=O

>  <assigned class>
no

$$$$
>  <molecule>
CCOCN(C(=O)c1nsc2ccc(-n3c(=O)cc(C(F)(F)F)n(C)c3=O)cc12)S(C)(=O)=O

>  <assigned class>
no

$$$$

----------
Test system: Cyperus serotinus, Rottb.
assay info: Preemergence weed control under flooded paddy conditions, CYPSE (Flatsedge); also: meaning of each grade not given here
Format: in vivo
condition description: Rate 0.0620 kg/ha, preemergence weeds, rated three to four weeks after treatment

>  <compound>
CSc1ccc(C)cc1-c1nsc2ccc(-n3c(=O)cc(C(F)(F)F)n(C)c3=O)cc12 [Example 342]

>  <herbicidal effect rating, CYPSE>
0.0

$$$$
>  <compound>
Cn1c(C(F)(F)F)cc(=O)n(-c2ccc3snc(C(=O)O)c3c2)c1=O [Example 315]

>  <herbicidal effect rating, CYPSE>
0.0

$$$$
>  <compound>
Cn1c(C(F)(F)F)cc(=O)n(-c2ccc3snc(CN(C(=O)OC(C)(C)C)S(C)(=O)=O)c3c2)c1=O [Example 304]

>  <herbicidal effect rating, CYPSE>
0.0

$$$$
>  <compound>
C[C@H](Br)[C@H](Br)c1nsc2ccc(-n3c(=O)cc(C(F)(F)F)n(C)c3=O)cc12 [Example 302]

>  <herbicidal effect rating, CYPSE>
4.5

$$$$
>  <compound>
Cn1c(C(F)(F)F)cc(=O)n(-c2ccc3snc(C(=O)NS(=O)(=O)CCl)c3c2)c1=O [Example 334]

>  <herbicidal effect rating, CYPSE>
0.0

$$$$
>  <compound>
CC(Oc1ccccc1-c1nsc2ccc(-n3c(=O)cc(C(F)(F)F)n(C)c3=O)cc12)C(=O)NS(C)(=O)=O (centres unmarked) [Example 335]

>  <herbicidal effect rating, CYPSE>
0.0

$$$$
>  <compound>
CC(Oc1ccccc1-c1nsc2ccc(-n3c(=O)cc(C(F)(F)F)n(C)c3=O)cc12)C(=O)O (centres unmarked) [Example 314]

>  <herbicidal effect rating, CYPSE>
0.0

$$$$
>  <compound>
Cn1c(C(F)(F)F)cc(=O)n(-c2ccc3snc(C(N)=O)c3c2)c1=O [Example 322]

>  <herbicidal effect rating, CYPSE>
5.0

$$$$
